B1: Intersectin-1, residues 909 to 971; numbered along this chain, Q15811 (parent)
chain: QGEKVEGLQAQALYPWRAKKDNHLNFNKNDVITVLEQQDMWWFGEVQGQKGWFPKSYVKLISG

variants of: B1; test: abundance fitness (aPCA) (normalised: wild type 0, dead -1); higher = more abundant; growth selection in yeast, the domain comes from the species named; settings: Homo sapiens
Each record here notes measured abundance fitness.
test_readout: abundance fitness

Y57N :: 0.212
M40Q :: 0.052
G63R :: -0.029
I61E :: -0.088
T33F :: -0.242
Q1M :: -0.208
G51E :: -0.86
F53R :: -0.951
Q11T :: -0.098
V31F :: -0.022
L35S :: -0.114
L60C :: 0.029
K59W :: -0.747
W16G :: -0.744
A18T :: -0.065
L24K :: -1.14
P15R :: -0.018
Q47R :: -0.151
A18G :: 0.043
S62N :: -0.151
Y14R :: -0.052
R17P :: -0.293
P54L :: -0.215
F26L :: -0.078
I32R :: -0.766
K20Q :: -0.171
V58S :: -0.816
R17D :: -0.163
L24T :: -0.694
V58G :: -0.881
V31H :: -0.117
K20V :: -0.117
P54E :: -0.474
Q38A :: -0.463
E3S :: -0.319
